- System: HCC-366
- experimental.details: relative viability (nuclei count vs DMSO), 5 days (fraction); higher = more cells survive
- experimental.context: first compound 0.03162 µM
quantity.measured: relative viability
Just the number, please.

Before answering, review these 3 worked examples.
[
  {
    "compound": "O=c1cc(N2CCOCC2)oc2c(-c3cccc4c3sc3ccccc34)cccc12 + Cc1nc(Nc2ncc(C(=O)Nc3c(C)cccc3Cl)s2)cc(N2CCN(CCO)CC2)n1 [Dasatinib] (partner 0.075 µM)",
    "recorded.number": 0.69
  },
  {
    "compound": "CCN(CC)CCCCNc1ncc2cc(-c3cc(OC)cc(OC)c3)c(NC(=O)NC(C)(C)C)nc2n1 + CC(=O)c1c(C)c2cnc(Nc3ccc(N4CCNCC4)cn3)nc2n(C2CCCC2)c1=O [Palbociclib] (partner 0.5 µM)",
    "recorded.number": 0.406
  },
  {
    "compound": "CCN(CC)CCCCNc1ncc2cc(-c3cc(OC)cc(OC)c3)c(NC(=O)NC(C)(C)C)nc2n1 + Cc1nc(Nc2ncc(C(=O)Nc3c(C)cccc3Cl)s2)cc(N2CCN(CCO)CC2)n1 [Dasatinib] (partner 0.075 µM)",
    "recorded.number": 0.686
  }
]

Please find the next compound below.
Any idea what its relative viability is? The compound is CCN(CC)CCCCNc1ncc2cc(-c3cc(OC)cc(OC)c3)c(NC(=O)NC(C)(C)C)nc2n1 + C[C@]1(O)C[C@@H](c2nc(-c3ccc4ccc(-c5ccccc5)nc4c3)c3c(N)nccn32)C1 [Linsitinib] (partner 1 µM) 0.706

###

- Tested on: EMC-BAC-2
- experimental.details: relative viability (nuclei count vs DMSO), 5 days (fraction); higher = more cells survive
- experimental.context: first compound 0.01 µM
quantity.measured: relative viability
Lab note: jot the number down without any unit.

[
  {
    "compound": "CCN(CC)CCCCNc1ncc2cc(-c3cc(OC)cc(OC)c3)c(NC(=O)NC(C)(C)C)nc2n1 + C[C@]1(O)C[C@@H](c2nc(-c3ccc4ccc(-c5ccccc5)nc4c3)c3c(N)nccn32)C1 [Linsitinib] (partner 1 µM)",
    "recorded.number": 0.873
  }
]

Which measured relative viability belongs to O=c1cc(N2CCOCC2)oc2c(-c3cccc4c3sc3ccccc34)cccc12 + CC1(C)CCC(c2ccc(Cl)cc2)=C(CN2CCN(c3ccc(C(=O)NS(=O)(=O)c4ccc(N[C@H](CCN5CCOCC5)CSc5ccccc5)c(S(=O)(=O)C(F)(F)F)c4)cc3)CC2)C1 [Navitoclax] (partner 0.5 µM) , tested on EMC-BAC-2? 1.09

Also O=c1cc(N2CCOCC2)oc2c(-c3cccc4c3sc3ccccc34)cccc12 + CC(=O)Nc1cccc(-n2c(=O)n(C3CC3)c(=O)c3c(Nc4ccc(I)cc4F)n(C)c(=O)c(C)c32)c1 [Trametinib] (partner 0.02 µM) ? 0.976

Proceed to O=c1cc(N2CCOCC2)oc2c(-c3cccc4c3sc3ccccc34)cccc12 + CCNC(=O)c1noc(-c2cc(C(C)C)c(O)cc2O)c1-c1ccc(CN2CCOCC2)cc1 [Luminespib] (partner 0.01 µM) 1.21

###

- Test system: NCI-H2126
- experimental.details: relative viability (nuclei count vs DMSO), 5 days (fraction); higher = more cells survive
- experimental.context: first compound 0.8 µM
quantity.measured: relative viability
Reply briefly: the number, and no unit.

Sample answers from the record:
[
  {
    "compound": "COc1nc(C)cnc1NS(=O)(=O)c1cccnc1-c1ccc(-c2nnco2)cc1 [Zibotentan] + O=C(c1cc(Cc2n[nH]c(=O)c3ccccc23)ccc1F)N1CCN(C(=O)C2CC2)CC1 [Olaparib] (partner 8 µM)",
    "relative viability": 0.89
  },
  {
    "compound": "COc1nc(C)cnc1NS(=O)(=O)c1cccnc1-c1ccc(-c2nnco2)cc1 [Zibotentan] + CCNC(=O)c1noc(-c2cc(C(C)C)c(O)cc2O)c1-c1ccc(CN2CCOCC2)cc1 [Luminespib] (partner 0.01 µM)",
    "relative viability": 0.896
  },
  {
    "compound": "COc1nc(C)cnc1NS(=O)(=O)c1cccnc1-c1ccc(-c2nnco2)cc1 [Zibotentan] + Cc1cc(Nc2cc(N3CCN(C)CC3)nc(Sc3ccc(NC(=O)C4CC4)cc3)n2)n[nH]1 [Tozasertib] (partner 0.1 µM)",
    "relative viability": 0.813
  },
  {
    "compound": "O=c1cc(-c2cccc3c2Sc2ccccc2S3)oc(N2CCOCC2)c1 + Cc1cc(Nc2cc(N3CCN(C)CC3)nc(Sc3ccc(NC(=O)C4CC4)cc3)n2)n[nH]1 [Tozasertib] (partner 0.1 µM)",
    "relative viability": 0.824
  },
  {
    "compound": "COc1nc(C)cnc1NS(=O)(=O)c1cccnc1-c1ccc(-c2nnco2)cc1 [Zibotentan] + CS(=O)(=O)N1CCN(Cc2cc3nc(-c4cccc5[nH]ncc45)nc(N4CCOCC4)c3s2)CC1 [Pictilisib] (partner 1 µM)",
    "relative viability": 0.465
  }
]

Let us examine a further case.
Consider the compound shown here: COc1nc(C)cnc1NS(=O)(=O)c1cccnc1-c1ccc(-c2nnco2)cc1 [Zibotentan] + C[C@@H](Oc1cc(-c2cnn(C3CCNCC3)c2)cnc1N)c1c(Cl)ccc(F)c1Cl [Crizotinib] (partner 1 µM) What is its recorded relative viability? 0.992
